molecular target: mouse group 1B PLA2 (mps PLA2) (Mus musculus, UniProt Q9Z0Y2); construct: made in house; host or cells: E. coli; assay: Fluorimetric PPyrPM assay for group 1B PLA2 inhibition (Example 12); type: biochemical; conditions: read-out: ILYPSA % inhibition at 15 μM mps PLA2; 15 μM, mouse pancreas secreted PLA2
Sequence (Q9Z0Y2 23-146): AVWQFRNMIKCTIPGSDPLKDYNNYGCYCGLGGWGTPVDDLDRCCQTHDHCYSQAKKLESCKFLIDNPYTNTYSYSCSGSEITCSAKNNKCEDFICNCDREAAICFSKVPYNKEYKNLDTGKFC
Exercise: for every item that follows, state its recorded inhibition at 15 µM.
// units = %; emit number, no label

Short answer please: inhibition at 15 µM, mouse group 1B PLA2 (mps PLA2) (Mus musculus, UniProt Q9Z0Y2), entry Cc1c(C(=O)C(N)=O)c2c(OC(C(=O)O)c3ccccc3)cccc2n1Cc1ccccc1 (stereo not drawn)
47.5

Short answer please: inhibition at 15 µM, mouse group 1B PLA2 (mps PLA2) (Mus musculus, UniProt Q9Z0Y2), entry COC(=O)C(Oc1cccc2c1c(C(=O)C(N)=O)c(C)n2Cc1ccccc1)C(=O)O (stereo not drawn)
35.7

Short answer please: inhibition at 15 µM, mouse group 1B PLA2 (mps PLA2) (Mus musculus, UniProt Q9Z0Y2), entry Cc1c(C(=O)C(N)=O)c2c(OC(F)(C(=O)O)C(F)(F)Br)cccc2n1Cc1ccccc1 (stereo not drawn)
42.6

Short answer please: inhibition at 15 µM, mouse group 1B PLA2 (mps PLA2) (Mus musculus, UniProt Q9Z0Y2), entry `Cc1c(C(=O)C(N)=O)c2c(OC(C(=O)O)C(=O)O)cccc2n1Cc1ccccc1`
61.2

Short answer please: inhibition at 15 µM, mouse group 1B PLA2 (mps PLA2) (Mus musculus, UniProt Q9Z0Y2), entry Cc1c(C(=O)C(N)=O)c2c(OCC(=O)NC(CC(=O)O)C(=O)O)nccc2n1Cc1ccccc1 (stereo not drawn)
35.7

Short answer please: inhibition at 15 µM, mouse group 1B PLA2 (mps PLA2) (Mus musculus, UniProt Q9Z0Y2), entry Cc1c(C(=O)C(N)=O)c2c(OC(CCC(=O)O)C(=O)O)cccc2n1Cc1ccccc1 (stereo not drawn)
50.3

Short answer please: inhibition at 15 µM, mouse group 1B PLA2 (mps PLA2) (Mus musculus, UniProt Q9Z0Y2), entry Cc1c(C(=O)C(N)=O)c2c(OC(F)C(=O)O)cccc2n1Cc1ccccc1 (stereo not drawn)
63.7

Short answer please: inhibition at 15 µM, mouse group 1B PLA2 (mps PLA2) (Mus musculus, UniProt Q9Z0Y2), entry `Cc1c(C(=O)C(N)=O)c2c(OCC(=O)O)c(Br)ccc2n1Cc1ccccc1`
39.8

Short answer please: inhibition at 15 µM, mouse group 1B PLA2 (mps PLA2) (Mus musculus, UniProt Q9Z0Y2), entry Cc1c(C(=O)C(N)=O)c2c(OC(C(N)=O)C(C)C)cccc2n1Cc1ccccc1 (stereo not drawn)
65.5
